Origin of measurements: patent US10000488B2

- target_or_test_system: RORγt (Homo sapiens)
- Sequence (P51449 1-497 isoform P51449-2, species assumed): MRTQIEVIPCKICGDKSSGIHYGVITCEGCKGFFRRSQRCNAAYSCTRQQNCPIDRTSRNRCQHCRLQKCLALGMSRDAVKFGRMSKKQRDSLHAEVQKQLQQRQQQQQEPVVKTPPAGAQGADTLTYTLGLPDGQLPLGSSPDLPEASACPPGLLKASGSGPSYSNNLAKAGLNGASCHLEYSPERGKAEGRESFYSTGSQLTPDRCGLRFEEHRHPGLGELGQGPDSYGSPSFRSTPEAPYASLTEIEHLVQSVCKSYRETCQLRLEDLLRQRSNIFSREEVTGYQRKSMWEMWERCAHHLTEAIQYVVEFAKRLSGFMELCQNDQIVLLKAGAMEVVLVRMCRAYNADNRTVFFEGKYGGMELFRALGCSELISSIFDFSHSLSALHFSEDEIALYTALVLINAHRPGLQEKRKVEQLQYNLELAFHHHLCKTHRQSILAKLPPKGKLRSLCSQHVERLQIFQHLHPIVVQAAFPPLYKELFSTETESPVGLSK
- test_name: Jurkat reporter test (human IL-17 ROR response element luciferase reporter, RORγt vector)
- Type: cell-based
- condition_info: test compound 3 μM; Jurkat cells; read-out: luminescence level inhibitory rate (%) at test compound 3 μM
Hi there, I'd appreciate the recorded inhibition at 3 µM for every entry that follows.
Answers are plain numbers, in %.

compound="COC(=O)NCc1ccc(C(=O)N[C@@H]2CCCN(C(=O)Nc3cc4c(=O)n(CC5CC5)c(=O)n(C(C)C)c4cc3F)C2)cc1 [Example 321]" reading_unit=% endpoint_value=101
compound="CC(C)n1c(=O)n(CC2CC2(F)F)c(=O)c2cc(NC(=O)N3CCOC(C(=O)Nc4cc(Cl)c(C#N)cc4F)C3)c(F)cc21 (mixture of isomers) [Example 348]" reading_unit=% endpoint_value=107
compound="Cc1ccc(F)c(C(=O)N[C@@H]2CCCN(C(=O)Nc3ccc4c(c3)c(=O)n(CC3CC3)c(=O)n4C(C)C)C2)c1 [Example 259]" reading_unit=% endpoint_value=102
compound="Cc1nc2cc(C(=O)N[C@@H]3CCCN(C(=O)Nc4cc5c(=O)n(CC6CC6)c(=O)n(C(C)C)c5cc4F)C3)ccc2o1 [Example 296]" reading_unit=% endpoint_value=102
compound="CC(C)n1c(=O)n(CC2CC2(F)F)c(=O)c2cc(NC(=O)N3CCOC(C(=O)Nc4ccc(C#N)c(Cl)c4)C3)c(F)cc21 (single isomer, unassigned) [Example 366]" reading_unit=% endpoint_value=108

The recorded inhibition at 3 µM for entry CC(C)n1c(=O)n(CC2CC2)c(=O)c2cc(NC(=O)N3CCC[C@@H](NC(=O)c4cc(F)ccc4F)C3)c(F)cc21 [Example 287] equals 100
